The measured values listed here are drawn from paper PMC9387934.

- test details: Phase 1a single ascending dose study: UV-4 plasma concentrations and PK parameters (LC-MS/MS, noncompartmental)
- Assay type: in vivo
- cond: both sexes, human, plasma, po, 3 mg, 3 mg single oral dose; Geo Mean; read-out: AUC(0-8)
recorded metric: AUC(0-t) (ng·h/mL)
Report the value in ng·h/mL with no unit label.

Task: Give the value of AUC(0-t) reported for the following: `COCCCCCCCCCN1C[C@H](O)[C@@H](O)[C@H](O)[C@H]1CO`
Output: 55.9

###

- test details: Phase 1a single ascending dose study: UV-4 plasma concentrations and PK parameters (LC-MS/MS, noncompartmental)
- Format: in vivo
- cond: both sexes, human, plasma, po, 90 mg, 90 mg single oral dose; Geo Mean; read-out: AUC(0-inf)
recorded metric: AUC(0-inf) (ng·h/mL)
Report the value in ng·h/mL with no unit label.

Task: Give the value of AUC(0-inf) reported for the following: COCCCCCCCCCN1C[C@H](O)[C@@H](O)[C@H](O)[C@H]1CO [UV-4B]
Output: 3700

###

- test details: Phase 1a single ascending dose study: UV-4 plasma concentrations and PK parameters (LC-MS/MS, noncompartmental)
- Format: in vivo
- cond: both sexes, human, plasma, po, 10 mg, 10 mg single oral dose; Geometric Mean; read-out: AUC(0-inf)
recorded metric: AUC(0-inf) (ng·h/mL)
Report the value in ng·h/mL with no unit label.

Task: Give the value of AUC(0-inf) reported for the following: `COCCCCCCCCCN1C[C@H](O)[C@@H](O)[C@H](O)[C@H]1CO`
Output: 420

###

- test details: Phase 1a single ascending dose study: UV-4 plasma concentrations and PK parameters (LC-MS/MS, noncompartmental)
- Type: in vivo
- cond: both sexes, human, plasma, po, 360 mg, 360 mg single oral dose; Ar Mean; read-out: AUC(0-8)
recorded metric: AUC(0-t) (ng·h/mL)
Report the value in ng·h/mL with no unit label.

Task: Give the value of AUC(0-t) reported for the following: COCCCCCCCCCN1C[C@H](O)[C@@H](O)[C@H](O)[C@H]1CO [UV-4B]
Output: 11900

###

- test details: Phase 1a single ascending dose study: UV-4 plasma concentrations and PK parameters (LC-MS/MS, noncompartmental)
- Assay type: in vivo
- cond: both sexes, human, plasma, po, 10 mg, 10 mg single oral dose; Ar Mean; read-out: Cmax
recorded metric: Cmax
Quick note: unit goes after the number.

Task: Give the value of Cmax reported for the following: `COCCCCCCCCCN1C[C@H](O)[C@@H](O)[C@H](O)[C@H]1CO`
Output: 84.6 ng/mL

###

- test details: Phase 1a single ascending dose study: UV-4 plasma concentrations and PK parameters (LC-MS/MS, noncompartmental)
- Type: in vivo
- cond: both sexes, human, plasma, po, 720 mg, 720 mg single oral dose; Geometric Mean; read-out: AUC(0-inf)
- Description: UV-4 ((2R,3R,4R,5S)-2-(hydroxymethyl)-1-(9-methoxynonyl)piperidine-3,4,5-triol, also called N-(9’-methoxynonyl)-1-deoxynojirimycin, or MON-DNJ) hydrochloride was evaluated in a first-in-human, randomized, single-center, double-blind, placebo-controlled, parallel group, single ascending dose Phase 1a clinical trial in healthy subjects (Figs 1 and 2, ClinicalTrials.gov Identifier NCT02061358 https://clinicaltrials.gov/ct2/show/NCT02061358). […]
recorded metric: AUC(0-inf)
Quick note: unit goes after the number.

Task: Give the value of AUC(0-inf) reported for the following: `COCCCCCCCCCN1C[C@H](O)[C@@H](O)[C@H](O)[C@H]1CO`
Output: 32800 ng·h/mL
